test: The drug is tested on Z-002 corresponding to rabbit gut metagenome with ENA study accession number: PRJEB37062 and ENA sample accession number: ERS12561802 for biotransformation under anaerobic condition. The drug concentrations were measured over 9 timepoints collected between 0 and 24 hours of incubation by liquid-chromatography-coupled mass spectrometry (LC–MS); conditions: 2 µM; also: call rule not given here
Readout kind: Bacterial Biotransformation

1) C=CCc1ccccc1OCC(O)CNC(C)C (centres undefined) [ALPRENOLOL] | Compound metabolized
2) CC(C)(C#N)c1cc(Cn2cncn2)cc(C(C)(C)C#N)c1 [ANASTROZOLE] | Compound metabolized
3) COc1ccc2[nH]c([S+]([O-])Cc3ncc(C)c(OC)c3C)nc2n1 (centres undefined) [TENATOPRAZOLE] | Compound NOT metabolized
4) O=c1[nH]c2ccccc2n1C1CCN(CCCC(c2ccc(F)cc2)c2ccc(F)cc2)CC1 [PIMOZIDE] | Compound NOT metabolized
5) CN1CCc2c(c3ccccc3n2Cc2ccccc2)C1.CN1CCc2c(c3ccccc3n2Cc2ccccc2)C1.O=S(=O)(O)c1cccc2c(S(=O)(=O)O)cccc12 | Compound NOT metabolized
6) OCCOCCN1CCN(C2=Nc3ccccc3Sc3ccccc32)CC1 [QUETIAPINE] | Compound metabolized
7) CCc1nn(CCCN2CCN(c3cccc(Cl)c3)CC2)c(=O)n1CCOc1ccccc1 [NEFAZODONE] | Compound NOT metabolized
8) c1ccc([C@H]2CN3CCSC3=N2)cc1 [LEVAMISOLE] | Compound metabolized
9) CC(C(=O)O)c1ccc2c(c1)Cc1cccnc1O2 (centres undefined) [PRANOPROFEN] | Compound metabolized

###

settings: human gut metagenome, 24 h, 2 µM
Readout kind: Bacterial Biotransformation

1) O=c1[nH]c2ccccc2n1C1CCN(CCCC(c2ccc(F)cc2)c2ccc(F)cc2)CC1 [PIMOZIDE] | Compound metabolized
2) Cc1ccccc1N1C(=O)c2cc(S(N)(=O)=O)c(Cl)cc2NC1C (stereo not drawn) | Compound NOT metabolized
3) CC(C)(C(=O)O)c1ccc(C(O)CCCN2CCC(C(O)(c3ccccc3)c3ccccc3)CC2)cc1 (stereo not drawn) [FEXOFENADINE] | Compound NOT metabolized
4) CCN(CC)CCOC(=O)C(Cc1cccc2ccccc12)CC1CCCO1.O=C(O)C(=O)O (stereo not drawn) [NAFRONYL OXALATE] | Compound NOT metabolized
5) O=c1n(CCCN2CCN(c3cccc(Cl)c3)CC2)nc2ccccn12 | Compound metabolized
6) CC(C)OC(=O)C(C)(C)Oc1ccc(C(=O)c2ccc(Cl)cc2)cc1 [FENOFIBRATE] | Compound metabolized
7) CC(=O)OCC(=O)[C@@]12N=C(C)O[C@@H]1C[C@H]1[C@@H]3CCC4=CC(=O)C=C[C@]4(C)[C@H]3[C@@H](O)C[C@@]12C | Compound metabolized
8) Cc1cc2c(cc1S(N)(=O)=O)S(=O)(=O)CCC2 | Compound NOT metabolized

###

assay: The drug is tested on WLS-170 corresponding to human gut metagenome with ENA study accession number: PRJEB37062 and ENA sample accession number: ERS12561762 for biotransformation under anaerobic condition. The drug concentrations were measured over 9 timepoints collected between 0 and 24 hours of incubation by liquid-chromatography-coupled mass spectrometry (LC–MS); conditions: 2 µM
Readout kind: Bacterial Biotransformation

1. CN(C)CC(c1ccc(O)cc1)C1(O)CCCCC1.O=C(O)CCC(=O)O (stereo not drawn) [DESVENLAFAXINE SUCCINATE] | Compound NOT metabolized
2. CC[C@@H](CO)NC(=O)[C@@H]1C=C2c3cccc4c3c(cn4C)C[C@H]2N(C)C1.O=C(O)/C=C\C(=O)O [METHYSERGIDE MALEATE] | Compound metabolized
3. CN1CC(=O)N2[C@H](c3ccc4c(c3)OCO4)c3[nH]c4ccccc4c3C[C@@H]2C1=O | Compound metabolized
4. CO[C@]12C[C@@H](COC(=O)c3cncc(Br)c3)CN(C)[C@@H]1Cc1cn(C)c3cccc2c13 [NICERGOLINE] | Compound NOT metabolized
5. OCCN1CCN(CCCN2c3ccccc3Sc3ccc(C(F)(F)F)cc32)CC1 [FLUPHENAZINE] | Compound metabolized
6. CNS(=O)(=O)Cc1ccc2[nH]cc(CCN(C)C)c2c1.O=C(O)CCC(=O)O [SUMATRIPTAN SUCCINATE] | Compound NOT metabolized
7. CC(CN(C)C)CN1c2ccccc2CCc2ccccc21.O=C(O)/C=C\C(=O)O (stereo not drawn) [TRIMIPRAMINE MALEATE] | Compound metabolized
8. CCN(CC)C(C)CN1c2ccccc2Sc2ccccc21 (stereo not drawn) [ETHOPROPAZINE] | Compound metabolized

###

experiment: The drug is tested on WLS-310 corresponding to human gut metagenome with ENA study accession number: PRJEB37062 and ENA sample accession number: ERS12561785 for biotransformation under anaerobic condition. The drug concentrations were measured over 9 timepoints collected between 0 and 24 hours of incubation by liquid-chromatography-coupled mass spectrometry (LC–MS); conditions: 2 µM
Readout kind: Bacterial Biotransformation

1) OC(Cn1cncn1)(Cn1cncn1)c1ccc(F)cc1F | Compound metabolized
2) CC(C)c1nc(CN(C)C(=O)N[C@H](C(=O)N[C@@H](Cc2ccccc2)C[C@H](O)[C@H](Cc2ccccc2)NC(=O)OCc2cncs2)C(C)C)cs1 | Compound metabolized
3) CCN(CC)CCOCCOC(=O)C1(c2ccccc2)CCCC1.O=C(O)CC(O)(CC(=O)O)C(=O)O [CARBETAPENTANE CITRATE] | Compound metabolized

###

conditions: human gut metagenome, 24 h, 2 µM
Readout kind: Bacterial Biotransformation

1. COc1ccccc1N1CCN(CC(O)COc2cccc3ccccc23)CC1 (stereo not drawn) | Compound NOT metabolized
2. CCN1CCCC1CNC(=O)c1cc(S(N)(=O)=O)ccc1OC (stereo not drawn) [SULPIRIDE] | Compound NOT metabolized
3. CNC(=C[N+](=O)[O-])NCCSCc1ccc(CN(C)C)o1 | Compound NOT metabolized
4. CCN(CC)C(C)CN1c2ccccc2Sc2ccccc21 (stereo not drawn) | Compound metabolized
5. CCCCCOC(=O)Nc1nc(=O)n([C@@H]2O[C@H](C)[C@@H](O)[C@H]2O)cc1F | Compound metabolized
6. C[C@@H]1CC[C@H]2[C@@H](C)C(=O)O[C@@H]3O[C@@]4(C)CC[C@@H]1[C@]32OO4 | Compound metabolized
7. CN1CCC(=C2c3ccccc3CCc3cccnc32)CC1.O=C(O)/C=C\C(=O)O.O=C(O)/C=C\C(=O)O [AZATADINE MALEATE] | Compound NOT metabolized
8. Cc1ccccc1N1C(=O)c2cc(S(N)(=O)=O)c(Cl)cc2NC1C (stereo not drawn) | Compound metabolized

###

assay: The drug is tested on Z-028 corresponding to mouse gut metagenome with ENA study accession number: PRJEB37062 and ENA sample accession number: ERS12561827 for biotransformation under anaerobic condition. The drug concentrations were measured over 9 timepoints collected between 0 and 24 hours of incubation by liquid-chromatography-coupled mass spectrometry (LC–MS); settings: 2 µM
Readout kind: Bacterial Biotransformation

1. CCOC(=O)[C@H](CCc1ccccc1)N[C@@H](C)C(=O)N1[C@H](C(=O)O)C[C@@H]2CCC[C@@H]21 | Compound NOT metabolized
2. CC[C@H](C)C(=O)O[C@H]1C[C@@H](C)C=C2C=C[C@H](C)[C@H](CC[C@@H]3C[C@@H](O)CC(=O)O3)[C@H]21 [LOVASTATIN] | Compound metabolized
3. O=P(O)(O)O.c1ccc(CN(CC2=NCCN2)c2ccccc2)cc1 [ANTAZOLINE PHOSPHATE] | Compound NOT metabolized
4. O=c1[nH]c2ccccc2n1CCCN1CCC(n2c(=O)[nH]c3cc(Cl)ccc32)CC1 [DOMPERIDONE] | Compound NOT metabolized
5. OCCOCCN1CCN(C2=Nc3ccccc3Sc3ccccc32)CC1 [QUETIAPINE] | Compound NOT metabolized
6. Cc1cn([C@H]2C[C@H](N=[N+]=[N-])[C@@H](CO)O2)c(=O)[nH]c1=O [ZIDOVUDINE] | Compound metabolized
7. CC(C(=O)O)c1ccc2c(c1)Cc1cccnc1O2 (centres undefined) [PRANOPROFEN] | Compound metabolized
8. CCOc1ccc(NC(C)=O)cc1 [PHENACETIN] | Compound NOT metabolized
9. C#C[C@]1(O)CC[C@H]2[C@@H]3CCC4=Cc5oncc5C[C@]4(C)[C@H]3CC[C@@]21C [DANAZOL] | Compound metabolized
10. CCCc1nc(C(C)(C)O)c(C(=O)OCc2oc(=O)oc2C)n1Cc1ccc(-c2ccccc2-c2nnn[nH]2)cc1 [OLMESARTAN MEDOXOMIL] | Compound NOT metabolized
11. Cc1ccc(-c2cc(C(F)(F)F)nn2-c2ccc(S(N)(=O)=O)cc2)cc1 [CELECOXIB] | Compound NOT metabolized
12. CN1CCN(C2=Nc3cc(Cl)ccc3Nc3ccccc32)CC1 [CLOZAPINE] | Compound NOT metabolized
13. CCCCC1=NC2(CCCC2)C(=O)N1Cc1ccc(-c2ccccc2-c2nnn[nH]2)cc1 [IRBESARTAN] | Compound NOT metabolized
14. COc1ccccc1N1CCN(CC(O)COc2cccc3ccccc23)CC1 (centres undefined) [NAFTOPIDIL] | Compound metabolized
15. COc1ccc2c(c1OC)C(=O)O[C@@H]2[C@H]1c2c(cc3c(c2OC)OCO3)CCN1C [NOSCAPINE] | Compound NOT metabolized
16. OC(CCN1CCCCC1)(c1ccccc1)C1CCCCC1 (centres undefined) [TRIHEXYPHENIDYL] | Compound NOT metabolized
17. CNC(=C[N+](=O)[O-])NCCSCc1ccc(CN(C)C)o1 [RANITIDINE] | Compound metabolized
18. Cc1cc2c(cc1S(N)(=O)=O)S(=O)(=O)CCC2 | Compound NOT metabolized
19. CNCCC(Oc1ccc(C(F)(F)F)cc1)c1ccccc1 (centres undefined) [FLUOXETINE] | Compound NOT metabolized
20. CC[C@@H](CO)NC(=O)[C@@H]1C=C2c3cccc4c3c(cn4C)C[C@H]2N(C)C1.O=C(O)/C=C\C(=O)O [METHYSERGIDE MALEATE] | Compound NOT metabolized
21. CCN(CC)CCNC(=O)c1cc(Cl)c(N)cc1OC [METOCLOPRAMIDE] | Compound NOT metabolized
22. CC(Oc1c(Cl)cccc1Cl)C1=NCCN1 (centres undefined) [LOFEXIDINE] | Compound NOT metabolized
23. CC(C)(C)NC[C@H](O)COc1ccccc1C1CCCC1.CC(C)(C)NC[C@H](O)COc1ccccc1C1CCCC1.O=S(=O)(O)O [PENBUTOLOL SULFATE] | Compound NOT metabolized
24. C=CCN1CC[C@]23c4c5ccc(O)c4O[C@H]2C(=O)CC[C@@]3(O)[C@H]1C5 [NALOXONE] | Compound NOT metabolized
25. CC(=O)OCC(=O)[C@@]1(O)[C@@H](C)C[C@H]2[C@@H]3CCC4=CC(=O)C=C[C@]4(C)[C@@]3(F)[C@@H](O)C[C@@]21C [BETAMETHASONE ACETATE] | Compound metabolized
26. O=c1n(CCCN2CCN(c3cccc(Cl)c3)CC2)nc2ccccn12 [TRAZODONE] | Compound NOT metabolized
27. COC(=O)Nc1nc2ccc(C(=O)c3ccccc3)cc2[nH]1 [MEBENDAZOLE] | Compound NOT metabolized
28. CCN(CC)CCNC(C(=O)OCCC(C)C)c1ccccc1.Cl.Cl (centres undefined) | Compound NOT metabolized
29. CC(C)NCC(O)COc1ccc(COCCOC(C)C)cc1.CC(C)NCC(O)COc1ccc(COCCOC(C)C)cc1.O=C(O)/C=C/C(=O)O (centres undefined) [BISOPROLOL FUMARATE] | Compound NOT metabolized
30. C[C@@H](CO)NC(=O)[C@@H]1C=C2c3cccc4[nH]cc(c34)C[C@H]2N(C)C1.O=C(O)/C=C\C(=O)O [ERGONOVINE MALEATE] | Compound NOT metabolized
31. NC(=O)N1c2ccccc2CC(=O)c2ccccc21 [OXCARBAZEPINE] | Compound NOT metabolized
32. C[C@@H]1CC[C@H]2[C@@H](C)C(=O)O[C@@H]3O[C@@]4(C)CC[C@@H]1[C@]32OO4 [ARTEMISININ] | Compound metabolized
33. Nc1c2c(nc3ccccc13)CCCC2 [TACRINE] | Compound NOT metabolized
34. CS(=O)(=O)O.OC(CCN1CCCCC1)(c1ccccc1)c1ccccc1 [PRIDINOL METHANESULFONATE] | Compound NOT metabolized
